// provenance: PubChem BioAssay (NCATS)

# Test system: GB4
# procedure-summary: qHTS profiling for inhibitors of Plasmodium falciparum proliferation (AID 504749); also: nearly all actives have a fitted effect of over 60% in size
# test-parameters: P. falciparum in erythrocytes, SYBR Green DNA, 72 h; series mostly up to 28.7 µM
Records with an inconclusive call do not appear. Calls of active or inactive are those of the source. Calls follow the shape of the dose curve; as a rule, active = well fitted inhibition curve with a large enough effect; inconclusive = small, poorly fitted or top-dose-only effect; inactive = flat fitted curve, though single readings scatter.
Choose one outcome from this list and give only that: y for active, n for inactive

compound	subject-of-test	assigned-class
OCC(O)CO	GB4	n
CN(CCO)CC(O)Cn1cnc2c1c(=O)n(C)c(=O)n2C (configuration not stated) (tested in a mixture with another compound)	GB4	n
CSc1nc2cc(Oc3cccc(Cl)c3Cl)c(Cl)cc2[nH]1	GB4	y

Field: outcome | Entry: `CC[C@H]1OC(=O)[C@H](C)[C@@H](O[C@H]2C[C@@](C)(OC)[C@@H](O)[C@H](C)O2)[C@H](C)[C@@H](O[C@@H]2O[C@H](C)C[C@H](N(C)C)[C@H]2O)[C@](C)(O)C[C@@H](C)CN(C)[C@H](C)[C@@H](O)[C@]1(C)O` y

And for `CCCCCCCCCCCCOCCCN` ? n

Let us now turn to `NC(=S)NS(=O)(=O)c1ccc(N)cc1` n

Further, for `Cc1ncc(COP(=O)(O)O)c(CN)c1O` ? n

Input `CN(C)C=Nc1c(I)cc(I)c(CCC(=O)O)c1I` n

* * *

Here the recorded Potency is given for each entry.
# Tested on: KB-3-1
# procedure-summary: Cytotoxic Profiling of Annotated Libraries Using Quantitative High-Throughput Screening (AID 1296008); also: potency is read from the fitted curve at half-maximal effect; nearly all actives have a fitted effect of over 60% in size
# test-parameters: Five cell lines viability, CellTiter-Glo ATP luminescence, 48-72 h
Records with an inconclusive call do not appear. The source made the active and inactive calls. The call rests on the fitted dose curve; in most records, active means well fitted inhibition curve with a large enough effect; inconclusive means small, poorly fitted or top-dose-only effect; inactive means flat fitted curve, though single readings scatter.

>>> print(df.to_string())
                           substance_smiles  observed_measurement
0  Cc1cc(-c2ccc(N=Nc3ccc4c(S(=O)(=O)O)cc(S(=O)(=O)O)c(N)c4c3O)c(C)c2)ccc1N=Nc1ccc2c(S(=O)(=O)O)cc(S(=O)(=O)O)c(N)c2c1O       8.2 µM (active)
1  C[C@H]1[C@@H](OC(=O)CCC(=O)O)O[C@@H]2OC3(C)CC[C@H]4[C@H](C)CC[C@@H]1[C@@]24OO3      16.4 µM (active)
2  CC(=O)Nc1ccc(NC(=S)NC(=O)c2ccc(C(C)(C)C)cc2)cc1      4.11 µM (active)

Look up Potency for this molecule: `CCN1\C(=C/C=C/C=C/c2sc3ccccc3[n+]2CC)Sc2ccccc21` 9.2 µM (active)

Then `CN(C)c1ccc(C(=C2C=CC(=[N+](C)C)C=C2)c2c(O)c(S(=O)(=O)[O-])cc3cc(S(=O)(=O)O)ccc23)cc1` ? 14.6 µM (active)

Same read-out for `CN=C1C=CC(=C(c2ccc(N(C)C)cc2)c2ccc(N(C)C)cc2)C=C1` ? 7.31 µM (active)

* * *

# Tested on: GB4
# procedure-summary: qHTS profiling for inhibitors of Plasmodium falciparum proliferation (AID 504749); also: nearly all actives have a fitted effect of over 60% in size
# test-parameters: P. falciparum in erythrocytes, SYBR Green DNA, 72 h; series mostly up to 28.7 µM
# Procedure: NIH National Institute of Allergy and Infectious Diseases [NIAID] NIH Chemical Genomics Center [NCGC] […] Because mature erythrocytes lack DNA, only Plasmodium-derived DNA is detected. NCGC Assay Protocol Summary: The SYBR Green viability assay was adapted from a method described previously (Plouffe et al., 2008). […] The following morning, fluorescence intensity at 485(14) nm excitation and 535(25) nm emission wavelengths was measured on an EnVision (Perkin Elmer) plate reader. […]
Inconclusive results are not listed. Calls of active or inactive are those of the source. The call rests on the fitted dose curve; in most records, active means well fitted inhibition curve with a large enough effect; inconclusive means small, poorly fitted or top-dose-only effect; inactive means flat fitted curve, though single readings scatter.
Select the matching outcome among 1.0 = active, 0.0 = inactive

>>> print(df.to_string())
                         substance_smiles  assigned_class
0  O.O.O.O.O.O.O.O=S(=O)([O-])[O-].[Co+2]             1.0
1          O=C1NCCN1c1ncc([N+](=O)[O-])s1             0.0
2        O=C1c2ccccc2CN2C(=O)c3ccccc3CN12             0.0
3     CN(C)CCC=C1c2ccccc2C(C)(C)c2ccccc21             1.0
4                        C/C=C/C=C/C(=O)O             0.0

Assay outcome for `C=CCOc1ccc(CC(=O)O)cc1Cl` : what was it? 0.0

Now consider `CC(C)(C)CC(C)(C)c1ccc(OCCO)cc1` and answer again. 0.0

* * *

A collection of compounds and their measured activity, negative = inhibition
# procedure-summary: qHTS profiling for inhibitors of Plasmodium falciparum proliferation (AID 504749); also: nearly all actives have a fitted effect of over 60% in size;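 as to activity, negative = inhibition: 0% = DMSO vehicle and full inhibition = artemisinin control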
# test-parameters: P. falciparum in erythrocytes, SYBR Green DNA, 72 h; at 28.7 µM (top of the series); parasite line A
# Experimental: NIH National Institute of Allergy and Infectious Diseases [NIAID] NIH Chemical Genomics Center [NCGC] […] Because mature erythrocytes lack DNA, only Plasmodium-derived DNA is detected. NCGC Assay Protocol Summary: The SYBR Green viability assay was adapted from a method described previously (Plouffe et al., 2008). […] The following morning, fluorescence intensity at 485(14) nm excitation and 535(25) nm emission wavelengths was measured on an EnVision (Perkin Elmer) plate reader. […]
Inconclusive results are not listed.
The reply should be a number in %, with the unit left off.

Past entries and their recorded results:
>>> df
                     substance_smiles  observed_measurement
0        CNC(=O)OCc1cccc(COC(=O)NC)n1                  3.63
1  Nc1ncnc2c1ncn2[C@H]1CC[C@@H](CO)O1                  5.25
2     COc1ccc(C(=O)c2ccc(C)cc2)c(O)c1                  16.1
3        Cc1c(Cl)cccc1Nc1ncccc1C(=O)O                  15.4
4                                  CO                  8.74

Tell me the measured activity, negative = inhibition of `CCOC(C)OCC` , please. -1.66

Moving on to the next compound: `N#Cc1ccc2c(c1)N(CCCN1CCC(O)CC1)c1ccccc1S2` -11.2

And the next one, `Cc1ncc[nH]1` ? 1.23

* * *

# procedure-summary: MultiTox-Fluor Cytotoxicity Assay - LYMP1-002 - Dead Cells (AID 960); also: nearly all actives have a fitted effect of over 60% in size
# test-parameters: LYMP1-002 lymphoblastoid cells, dead-cell protease fluorescence; series mostly up to 46.1 µM
Inconclusive results are not listed. Active and inactive are the calls of the source. The call rests on the fitted dose curve; in most records, active means well fitted cell-killing curve with a large enough effect; inconclusive means small, poorly fitted or top-dose-only effect, or effect the other way; inactive means no such curve, though single readings can be large or run the other way.
Thanks in advance; please answer with one of these: 1 for active, 0 for inactive

>>> print(df.to_string())
                                   compound  assigned_class
0                                        CO               0
1            CC(C)(C)CC(C)(C)c1ccc(OCCO)cc1               0
2          CC/C=C\C/C=C\C/C=C\CCCCCCCC(=O)O               0
3  C[C@H](CCC(=O)O)[C@H]1CC[C@H]2[C@@H]3[C@H](O)C[C@@H]4C[C@H](O)CC[C@]4(C)[C@H]3C[C@H](O)[C@]12C               0
4  C=C1C(CCl)(CCl)C2(Cl)C(Cl)C(Cl)C1(Cl)C2(Cl)Cl (stereo unspecified)               1

Kindly review the next compound as well.
Check the results log: what was the call for CC1=CCC2CC1C2(C)C (stereo unspecified) ? 0

* * *

# procedure-summary: Drug repurposing screens with cells derived from glioblastoma tumor samples (AID 1345199); also: % is scaled to controls: 0 for no effect and ±100 for the full control effect; nearly all actives have a fitted effect of over 40% in size
# test-parameters: GBM patient neurospheres viability, ATP luminescence, 48 h; at 45.9 µM (top of the series); tumour line D
Inconclusive results are not listed.
measure-name: activity, negative = cell killing (%)
# number only, unit % dropped from output

Field: example entries. Status: answers known.
compound	activity, negative = cell killing / %
CCN(CC)CCOc1ccccc1OC	-13.8
O=C(O)c1ccc(NC2OC[C@@H](O)[C@H](O)[C@H]2O)cc1 (some centres undefined)	0.684
CC(C)[C@H](N)C(=O)OCC(CO)OCn1cnc2c(=O)[nH]c(N)nc21 (some centres undefined)	-11.6

Tell me the measured activity, negative = cell killing of CC1CC(O)CC(C)(C)C1 (centres undefined) , please. -9.42

# repeat for `CN(Cc1ccccc1)Cc1ccccc1` 6.3

And for `CO[C@H]1C=CO[C@@]2(C)Oc3c(C)c(O)c4c(O)c(cc(O)c4c3C2=O)NC(=O)/C(C)=C\C=C/[C@H](C)[C@H](O)[C@@H](C)[C@@H](O)[C@@H](C)[C@H](OC(C)=O)[C@@H]1C` ? -5.36

And `CCCCCCCCCCCCCCCCCC(=O)OC[C@@H](O)[C@H]1OC[C@H](O)[C@H]1O` ? 2.86

Try `CC(C)(C)CC(C)(C)c1cc(Cc2cc(C(C)(C)CC(C)(C)C)cc(-n3nc4ccccc4n3)c2O)c(O)c(-n2nc3ccccc3n2)c1` next. -1.11

Field entry: `O=C(O)[C@H]1CN(C/C=C/P(=O)(O)O)CCN1` 1.08

Try this compound too: `Cc1ncc[nH]1` -14.2

Query `Cc1ccc(S(=O)(=O)O)cc1C` next 0.633

Same again, this time with `CO/N=C(\C(=O)N[C@@H]1C(=O)N2C(C(=O)O)=C(CSc3nc(C)c(CC(=O)O)s3)CS[C@H]12)c1csc(N)n1` 3.79

Next: `CO/N=C(\C(=O)N[C@@H]1C(=O)N2C(C(=O)O)=C(CSC(=O)c3ccco3)CS[C@H]12)c1csc(N)n1` -3.95

Again, but for `O=C1c2ccccc2C(=O)C1c1ccc(F)cc1` -13.5
